reported.property: pKi
Lab note — pKi values are minus log10 of concentrations in M.

**Q:** What value of pKi on 5-HT1D (Homo sapiens, UniProt P28221) does CN(C)CCc1c[nH]c2ccccc12 have?
**A:** 7.53

**Q:** What value of pKi on 5-HT1D (Homo sapiens, UniProt P28221) does CN(C)CCc1c[nH]c2ccc(I)cc12 have?
**A:** 8.07

* * *

Give measured Ki for each item. Keep answers brief.
Write the number in nM without appending the unit.

**Q:** What value of Ki on UniProt:P34969 does CN(C)CCc1c[nH]c2ccc(I)cc12 have?
**A:** 116

**Q:** What value of Ki on UniProt:P34969 does CN(C)CCc1c[nH]c2ccccc12 have?
**A:** 77
